System: guinea pig Dopamine Transporter (DAT), gene 100714898
Test: NVS_TR_gDAT: NovaScreen (NVS) Transporter Assay for guinea pig Dopamine Transporter (DAT) (AID 2283369);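 note: active compounds lower bound radioligand signal relative to DMSO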
Records with an inconclusive call do not appear. Activity calls are given as the source filed them. Rule for the calls: active = hit-call score of the fitted dose curve at least 0.9, where 1 is the maximum; inconclusive = response in the unintended direction; inactive = score below 0.9.
Classes used: active, inactive

{"SMILES_RECORD": "O=[N+]([O-])c1ccc(Nc2ccccc2)cc1", "DISCRETE_LABEL": "active"}
{"SMILES_RECORD": "Cc1cc(C(C)(C)c2ccc(O)c(C)c2)ccc1O", "DISCRETE_LABEL": "active"}
{"SMILES_RECORD": "CC(C)(C)c1ccccc1O", "DISCRETE_LABEL": "inactive"}
{"SMILES_RECORD": "Oc1ccc(Cc2ccc(O)cc2)cc1", "DISCRETE_LABEL": "active"}
{"SMILES_RECORD": "CCOP(=O)(OCC)OC(=CCl)c1ccc(Cl)cc1Cl", "DISCRETE_LABEL": "active"}

----------
Assay: CCTE_Shafer_MEA_acute_network_burst_percentage: CCTE's Neural Acute Assay for Percentage of Network Bursts, Shafer Lab (AID 2284022);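 note: curves fitted for loss so actives lower network burst percentage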
Active and inactive are the calls of the source. The calls were made as follows: active = hit-call score of the fitted dose curve at least 0.9, where 1 is the maximum; inactive = score below 0.9.
Labels: 1 for active, 0 for inactive

{"SMILES_RECORD": "Cc1ccccc1OP(=O)(Oc1ccccc1C)Oc1ccccc1C", "DISCRETE_LABEL": 0}
{"SMILES_RECORD": "Oc1ccc(Cc2ccc(O)cc2)cc1", "DISCRETE_LABEL": 0}
{"SMILES_RECORD": "CCCCCCCCCCCCc1cccc(S(=O)(=O)O)c1", "DISCRETE_LABEL": 0}
{"SMILES_RECORD": "CCCCOC(=O)COC(=O)c1ccccc1C(=O)OCCCC", "DISCRETE_LABEL": 0}
{"SMILES_RECORD": "CC1(C)[C@H](C(=O)O[C@H](C#N)c2cccc(Oc3ccccc3)c2)[C@@H]1/C=C(\\Cl)C(F)(F)F", "DISCRETE_LABEL": 1}
{"SMILES_RECORD": "Cc1cc(C(F)(C(F)(F)F)C(F)(F)F)ccc1NC(=O)c1cccc(I)c1C(=O)NC(C)(C)CS(C)(=O)=O", "DISCRETE_LABEL": 0}
{"SMILES_RECORD": "CS(=O)(=O)c1ccc(C(=O)C2C(=O)CCCC2=O)c(Cl)c1COCC(F)(F)F", "DISCRETE_LABEL": 0}
{"SMILES_RECORD": "CN(C)C(=S)S", "DISCRETE_LABEL": 0}

----------
Molecular target: human Thyroid Receptor alpha (THRa1), THRA (gene 7067)
Experiment: ATG_THRa1_TRANS: Attagene TRANS-FACTORIAL HepG2 Assay for human Thyroid Receptor alpha (THRa1) (AID 2283014)
Records with an inconclusive call do not appear. Active and inactive are the calls of the source. How the source made its calls: active means hit-call score of the fitted dose curve at least 0.9, where 1 is the maximum; inconclusive means response in the unintended direction; inactive means score below 0.9.
Possible outcomes: active, inactive

{"SMILES_RECORD": "CNC(=O)CSP(=O)(OC)OC", "DISCRETE_LABEL": "inactive"}
{"SMILES_RECORD": "BrCCCCBr", "DISCRETE_LABEL": "inactive"}
{"SMILES_RECORD": "Brc1c(Br)c(Br)c(Oc2c(Br)c(Br)c(Br)c(Br)c2Br)c(Br)c1Br", "DISCRETE_LABEL": "inactive"}
{"SMILES_RECORD": "CN(C)c1ccc(N=O)cc1", "DISCRETE_LABEL": "inactive"}
{"SMILES_RECORD": "CNC(=O)O/N=C/C(C)(C)S(C)(=O)=O", "DISCRETE_LABEL": "inactive"}
{"SMILES_RECORD": "COc1ccc([N+](=O)[O-])cc1O", "DISCRETE_LABEL": "inactive"}
{"SMILES_RECORD": "Oc1cc(Cl)c(Cl)cc1Cl", "DISCRETE_LABEL": "inactive"}
{"SMILES_RECORD": "CCOC(=O)CC(=O)CCl", "DISCRETE_LABEL": "active"}
